The reported measurements were obtained from patent US20190153103A1.

// values below are reported % live, Fab-saporin, 100pM
# Tested System: rat BMPR1B overexpressed on the surface of HEK293T cells (N-terminal Asp-Lys epitope tag, … (rat, UniProt A0A8I6A0G0 62-550))
# Sequence (chain, as listed by the source): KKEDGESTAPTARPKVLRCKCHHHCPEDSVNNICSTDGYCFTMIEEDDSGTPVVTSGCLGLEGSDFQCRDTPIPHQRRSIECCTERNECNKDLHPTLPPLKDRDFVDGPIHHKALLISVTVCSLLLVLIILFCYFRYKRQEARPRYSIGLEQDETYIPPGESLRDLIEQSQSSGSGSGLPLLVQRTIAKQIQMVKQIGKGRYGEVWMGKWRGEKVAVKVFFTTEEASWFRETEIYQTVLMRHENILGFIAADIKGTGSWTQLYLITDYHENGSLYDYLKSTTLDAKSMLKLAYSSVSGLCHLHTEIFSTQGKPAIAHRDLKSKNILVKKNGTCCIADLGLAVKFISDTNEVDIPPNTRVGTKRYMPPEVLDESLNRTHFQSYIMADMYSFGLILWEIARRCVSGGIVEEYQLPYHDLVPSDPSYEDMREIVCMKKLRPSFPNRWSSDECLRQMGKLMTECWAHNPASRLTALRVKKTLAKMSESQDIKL
# Measurement Notes: cell-based or functional assay

{"columns": ["Binder", "% live, Fab-saporin, 100pM [%]"],
 "data": [
  ["SC91.1 (murine anti-BMPR1B antibody) (antibody, V domains shown, Murine hybridoma antibody with a kappa light chain) VH: QVQLQQPGAELVKPGASVKLSCKASGYTFTSYWMQWVKQRPGQGLEWIGEIDPSDNYTLYNQKFKGKATLTVDTSSSTAYMQLSSLTSEDSAVYYCARFGYYVDYWGLGTTLTVSS VL: DVVMTQTPLSLPVSLGDQASIFCRSSQSLVHSTGNTYLHWYLQKPGQSPKLLIYKVSNRFSGVPDRFSGSGSGTDFTLKISRVEAEDLGVYFCSQSTHVPFTFGSGTKLEIK", 15.6],
  ["SC91.3 (murine anti-BMPR1B antibody) (antibody, V domains shown, Murine hybridoma antibody) VH: QVQLQQPGAELVKPGASVKLSCKASGYTFTSYWMQWVKQRPGQGLEWIGEIDPSDSYTLYNQKFKGKATLTVDTSSSTAYMQLSSLTSEDSAVYFCARFGYYIEYWGQGTTLTVSS VL: DVVMTQTPLSLPVSLGDQASISCRSSQSLVHSTGNTYLHWYLQKPGQSPKLLIYKVSNRFSGVPDRFSGSGSGTDFTLKISRVEAEDLGVYFCSQSTHVPFTFGSGTKLEIK", 16],
  ["SC91.27 (murine anti-BMPR1B antibody) (antibody, V domains shown, Murine hybridoma antibody with the same VL as SC91.20) VH: QVQLQQPGAEVVKPGASVKLSCKASGYTFTNYWMQWVKQRPGQGLEWIGEIDPSDRYTMYNQKFKGKATLIVDTSSSTAYMQLSSLTSEDSAVYFCARFGYYVDYWGQGTTLTVSS VL: DVVMTQTPLSLPVSLGDQASISCRSSQSLVHSTGNTYLHWYLQKPGQSPNLLIYKVSNRFSGVPDRFSGSGSGTDFTLKISRVEAEDLGVYFCSQSTHVPFTFGSGTKLEIK", 17.9]
]}
